Ref: patent US20220370440A1

Below, each entry is listed alongside its reported IC50.
# Experimental Target: HER2 INS YVMA (Homo sapiens, UniProt P04626, INS775YVMA)
# Construct: purchased DPF
# Sequence (P04626 with tags, fused parts or gaps INS775YVMA): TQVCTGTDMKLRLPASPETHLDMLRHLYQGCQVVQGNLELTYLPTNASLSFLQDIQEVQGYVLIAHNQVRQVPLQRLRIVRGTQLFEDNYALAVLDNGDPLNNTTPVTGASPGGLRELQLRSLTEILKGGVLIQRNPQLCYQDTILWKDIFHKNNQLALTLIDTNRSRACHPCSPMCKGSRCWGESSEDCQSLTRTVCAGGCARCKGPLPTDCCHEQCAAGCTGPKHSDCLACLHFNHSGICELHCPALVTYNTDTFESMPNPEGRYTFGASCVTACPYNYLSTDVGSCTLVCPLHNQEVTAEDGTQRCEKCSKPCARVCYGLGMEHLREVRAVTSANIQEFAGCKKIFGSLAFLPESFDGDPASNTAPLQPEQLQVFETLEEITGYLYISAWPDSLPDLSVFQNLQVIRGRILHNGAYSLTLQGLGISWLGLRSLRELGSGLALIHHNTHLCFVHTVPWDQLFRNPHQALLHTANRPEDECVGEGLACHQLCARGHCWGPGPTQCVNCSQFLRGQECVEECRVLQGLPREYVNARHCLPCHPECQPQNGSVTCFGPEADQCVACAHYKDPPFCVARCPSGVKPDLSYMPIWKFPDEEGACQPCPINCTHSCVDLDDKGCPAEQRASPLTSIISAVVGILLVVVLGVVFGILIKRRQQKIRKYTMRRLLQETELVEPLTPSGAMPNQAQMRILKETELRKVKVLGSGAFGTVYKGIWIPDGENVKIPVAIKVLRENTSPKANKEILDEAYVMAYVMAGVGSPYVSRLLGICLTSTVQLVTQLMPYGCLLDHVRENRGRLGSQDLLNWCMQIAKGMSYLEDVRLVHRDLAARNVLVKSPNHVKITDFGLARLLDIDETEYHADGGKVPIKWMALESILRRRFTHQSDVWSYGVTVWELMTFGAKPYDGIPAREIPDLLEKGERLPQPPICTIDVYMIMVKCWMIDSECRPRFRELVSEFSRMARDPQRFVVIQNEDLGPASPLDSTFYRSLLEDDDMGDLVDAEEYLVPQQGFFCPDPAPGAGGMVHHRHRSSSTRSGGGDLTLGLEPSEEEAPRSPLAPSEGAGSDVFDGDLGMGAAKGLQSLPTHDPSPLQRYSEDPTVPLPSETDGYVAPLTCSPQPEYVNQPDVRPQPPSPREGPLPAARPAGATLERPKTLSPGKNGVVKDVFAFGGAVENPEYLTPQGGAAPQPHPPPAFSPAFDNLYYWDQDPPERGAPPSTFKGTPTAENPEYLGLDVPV
# Assay Remarks: Lance Kinase Activity Assay, HER2 INS YVMA (Her2 Exon 20 INSYVMA Lance)
# Assay type: biochemical
# Condition Details: biochemical Lance assay

Consider the following illustrative entries.
1) C=CC(=O)N1CCCc2ccc(-c3c(-c4ccc(C5CCN(C)CC5)cc4)[nH]c4nccc(Cl)c34)cc21 [Example 87]; ≤ 0.1 µM
2) C=CC(=O)Nc1cc(-c2c(-c3cccc(C(=O)N4CCOCC4)c3)[nH]c3nccc(Cl)c23)ccc1C [Example 27]; 0.5 to 1 µM
3) C=CC(=O)Nc1cc(-c2c(-c3ccc(N4CCN(C)CC4)cc3)[nH]c3ncc(C(=O)NCc4cccc(S(N)(=O)=O)c4)cc23)ccc1C [Example 126]; 0.1 to 0.5 µM
4) C=CC(=O)Nc1cc(-c2c(-c3ccc(CN4CCN(C)CC4)cc3)[nH]c3nccc(Cl)c23)ccc1C [Example 1, 2,2,2-trifluoroacetate]; ≤ 0.1 µM
5) C=CC(=O)Nc1cc(-c2c(-c3ccc(N4CCN(C)CC4)c(F)c3)[nH]c3nccc(Cl)c23)ccc1C [Example 42]; ≤ 0.1 µM
6) C=CC(=O)N1CCc2ccc(-c3c(-c4ccnc(N5CCN(C)CC5)c4)[nH]c4nccc(OC)c34)cc21 [Example 111]; ≤ 0.1 µM
7) C=CC(=O)Nc1cc(-c2c(-c3ccnc(N4CCN(C)CC4)c3)[nH]c3nccc(Cl)c23)ccc1C [Example 26]; ≤ 0.1 µM
8) C=CC(=O)Nc1cc(-c2c(-c3ccc(N4CCN(C)CC4)cc3)[nH]c3ncc(NC(=O)C(C)C)cc23)ccc1C [Example 200, 2,2,2-trifluoroacetate]; ≤ 0.1 µM

Prompt: For the compound shown here, C=CC(=O)Nc1cc(-c2c(-c3ccc(N4CCN(C)CC4)cc3)[nH]c3ncc(C(=O)NCc4ccc(NC(C)=O)cc4)cc23)ccc1C [Example 132] , give the reported IC50.
Completion: 0.5 to 1 µM

Prompt: For the compound shown here, C=CC(=O)Nc1cc(-c2c(-c3ccc(N4CCN(C)CC4)nc3)[nH]c3ncc(C(=O)OC(C)C)cc23)cc(F)c1C [Example 174] , give the reported IC50.
Completion: ≤ 0.1 µM

Prompt: For the compound shown here, C=CC(=O)Nc1cc(-c2c(-c3cccc(CN4CCN(C)CC4)c3)[nH]c3nccc(Cl)c23)ccc1C [Example 16] , give the reported IC50.
Completion: ≤ 0.1 µM

Prompt: For the compound shown here, C=CC(=O)Nc1cc(-c2c(-c3ccc(N4CCNCC4)cc3)[nH]c3nccc(Cl)c23)ccc1C [Example 96, 2,2,2-trifluoroacetate] , give the reported IC50.
Completion: ≤ 0.1 µM

Prompt: For the compound shown here, C=CC(=O)N1CCc2ccc(-c3c(-c4ccc(N5CCN(C(C)C)CC5)cc4)[nH]c4nccc(Cl)c34)cc21 [Example 62] , give the reported IC50.
Completion: ≤ 0.1 µM

====

# Experimental Target: HER2 INS YVMA (Homo sapiens, UniProt P04626, INS775YVMA)
# Construct: purchased DPF
# Assay Remarks: Lance Kinase Activity Assay, HER2 INS YVMA (Her2 Exon 20 INSYVMA Lance)
# Type: biochemical
# Condition Details: biochemical Lance assay
pIC50: −log10 of the molar value.
Below, each entry is listed alongside its reported pIC50.

Consider the following illustrative entries.
1) C=CC(=O)N1CCOc2ccc(-c3c(-c4ccc(N5CCN(C)CC5)cc4)[nH]c4nccc(Cl)c34)cc21 [Example 83, 2,2,2-trifluoroacetate]; ≥ 7.00
2) C=CC(=O)Nc1cc(-c2c(-c3ccc(OCCN(C)C)cc3)[nH]c3ncc(C(=O)OC(C)C)c(C)c23)ccc1C; ≥ 7.00
3) C=CC(=O)N1CCc2ccc(-c3c(-c4ccc(OCCN5CCCC5)cc4)[nH]c4nccc(OCC)c34)cc21; ≥ 7.00
4) C=CC(=O)N1CCc2ccc(-c3c(-c4ccc(C(=O)N5CCN(C)CC5)cc4)[nH]c4nccc(Cl)c34)cc21; ≥ 7.00
5) C=CC(=O)Nc1cc(-c2c(-c3ccc(N4CCN(C)CC4)cc3)[nH]c3ncc(C(=O)NCc4ccc(CN5CCN(C)CC5)cc4)cc23)ccc1C; ≥ 7.00

Prompt: Find the measured pIC50: item "C=CC(=O)Nc1cc(-c2c(-c3ccc(N4CCN(C)CC4)cc3)[nH]c3ncc(NC(C)=O)cc23)ccc1C" , target or system HER2 INS YVMA (Homo sapiens, UniProt P04626, INS775YVMA).
Completion: ≥ 7.00

Prompt: Find the measured pIC50: item "C=CC(=O)Nc1cc(-c2c(-c3cnc(N4CCN(C)CC4)nc3)[nH]c3ncc(C(=O)OC(C)C)cc23)ccc1C" , target or system HER2 INS YVMA (Homo sapiens, UniProt P04626, INS775YVMA).
Completion: 6.30 to 7.00

Prompt: Find the measured pIC50: item "C=CC(=O)Nc1cc(-c2c(-c3ccc(NC(C)=O)cc3)[nH]c3nccc(Cl)c23)ccc1C" , target or system HER2 INS YVMA (Homo sapiens, UniProt P04626, INS775YVMA).
Completion: 6.30 to 7.00

Prompt: Find the measured pIC50: item "C=CC(=O)Nc1cc(-c2c(-c3ccc(N4CCN(C)CC4)cc3)[nH]c3ncc(CC(=O)OC4COC4)cc23)ccc1C" , target or system HER2 INS YVMA (Homo sapiens, UniProt P04626, INS775YVMA).
Completion: ≥ 7.00

Prompt: Find the measured pIC50: item "C=CC(=O)Nc1cc(-c2c(-c3cccc(C(=O)NC4CC4)c3)[nH]c3nccc(Cl)c23)ccc1C" , target or system HER2 INS YVMA (Homo sapiens, UniProt P04626, INS775YVMA).
Completion: 6.00 to 6.30

Prompt: Find the measured pIC50: item "C=CC(=O)Nc1cc(-c2c(-c3cccc(CN4CCN(C(C)=O)CC4)c3)[nH]c3nccc(Cl)c23)ccc1C" , target or system HER2 INS YVMA (Homo sapiens, UniProt P04626, INS775YVMA).
Completion: 6.30 to 7.00

Prompt: Find the measured pIC50: item "C=CC(=O)N1CCOc2ccc(-c3c(-c4ccc(OCCN5CCCC5)cc4)[nH]c4nccc(Cl)c34)cc21" , target or system HER2 INS YVMA (Homo sapiens, UniProt P04626, INS775YVMA).
Completion: ≥ 7.00

Prompt: Find the measured pIC50: item "C=CC(=O)Nc1cc(-c2c(-c3ccc(C(=O)N4CCN(C)CC4)cc3)[nH]c3nccc(Cl)c23)ccc1C" , target or system HER2 INS YVMA (Homo sapiens, UniProt P04626, INS775YVMA).
Completion: ≥ 7.00

Prompt: Find the measured pIC50: item "C=CC(=O)Nc1cc(-c2c(-c3ccc(C4CCN(C)CC4)cc3)[nH]c3ncc(C(=O)OC(C)C)cc23)ccc1C" , target or system HER2 INS YVMA (Homo sapiens, UniProt P04626, INS775YVMA).
Completion: ≥ 7.00
